Origin of measurements: ChEMBL document CHEMBL1135145

tested on: Rattus norvegicus; assay: Compound was evaluated in vivo for the inhibition of LPS-stimulated serum TNF-alpha production in rat after oral administration at a dose 50 mg/kg; format: functional
measured quantity: inhibition in vivo at 50 mg/kg (%)
Write the answer as a number in %, unit excluded.

As a guide, the following entries are already answered.
CCOC(=O)c1c(NC(=O)C(C)C)sc2c1CCN(C(C)=O)C2    49.1
CC(=O)N1CCc2c(sc(NC(=O)C3CC3)c2C(=O)c2ccccc2C)C1    58.6
CCOC(=O)c1c(NC(=O)C2CC2)sc2c1CCN(C(C)=O)C2    64.2
CC(=O)c1c(NC(=O)C(C)C)sc2c1CCN(C(C)=O)C2    22.7
CC(=O)N1CCc2c(sc(NC(=O)C(C)C)c2C(=O)c2ccccc2Cl)C1    2.4

Task: I am curious: what inhibition in vivo at 50 mg/kg value has been reported for CC(=O)c1c(NC(=O)C2CC2)sc2c1CCN(C(C)=O)C2 ?
Result: 31.3

Task: Do the same for CC(=O)N1CCc2c(sc(NC(=O)C(C)C)c2C(=O)c2ccccc2C)C1 please
Result: 3.9

Task: Do the same for CC(=O)N1CCc2c(sc(NC(=O)C(C)C)c2C(=O)c2ccccc2)C1 please
Result: 35

Task: Do the same for CC(=O)N1CCc2c(sc(NC(=O)C3CC3)c2C(=O)c2ccccc2)C1 please
Result: 34.1

Task: Do the same for CC(=O)N1CCc2c(sc(NC(=O)C3CC3)c2C(=O)c2ccccc2Cl)C1 please
Result: 35
